Assay: PK of compound of Formula (Ia) after single subcutaneous dose of solution formulations in beagle dogs
Format: in vivo
Details: male, beagle, dog, plasma, sc, 12 mg/kg, beagle dogs, SC 12 mg/kg, 400 mg/mL solution AA (6.25% poloxamer 188), 840 h, Mean n = 3
quantity-name: concentration at 840 h (nM)
State the answer as a number, implicitly in nM.

Entry CC(C)(C#Cc1ccc(-c2ccc(Cl)c3c(NS(C)(=O)=O)nn(CC(F)(F)F)c23)c([C@H](Cc2cc(F)cc(F)c2)NC(=O)Cn2nc(C(F)(F)F)c3c2C(F)(F)[C@@H]2C[C@H]32)n1)S(C)(=O)=O [compound of Formula (Ia)] needs its concentration at 840 h filled in; supply it.
109

Reference source: patent US11807625B2
